tested on: B-Raf; assay: B-Raf kinase activity biochemical assay (AlphaScreen, biotin-MEK1 phosphorylation); conditions: ratio of IC50 B-Raf / B-Raf V600E
Endpoint name: Biochemical activity ratio B/V600E

compound="CCCS(=O)(=O)Nc1ccc(F)c(C(=O)c2c[nH]c3ncc(F)c(C#N)c23)c1F [P-2003]" result=0.1-10
compound="N#Cc1c(Cl)cnc2[nH]cc(C(=O)c3c(F)ccc(NS(=O)(=O)c4ccc(C(F)(F)F)cc4)c3F)c12 [P-2010]" result=0.1-10
compound="CCCc1ccc(S(=O)(=O)Nc2ccc(F)c(C(=O)c3c[nH]c4ncnc(O)c34)c2F)cc1 [P-1030]" result=<0.1
compound="N#Cc1ncnc2[nH]cc(C(=O)c3c(F)ccc(NS(=O)(=O)c4ccc(C(F)(F)F)cc4)c3F)c12 [P-1023]" result=0.1-10
compound="CC(C)Cc1ncnc2[nH]cc(C(=O)c3c(F)ccc(NS(=O)(=O)c4ccc(C(F)(F)F)cc4)c3F)c12 [P-1015]" result=0.1-10
compound="O=C(c1c(F)ccc(NS(=O)(=O)c2ccc(C(F)(F)F)cc2)c1F)c1c[nH]c2ncnc(Nc3ccccc3)c12 [P-1037]" result=0.1-10
compound="O=C(c1c(F)ccc(NS(=O)(=O)c2ccc(C(F)(F)F)cc2)c1F)c1c[nH]c2ncnc(NC3COC3)c12 [P-1050]" result=0.1-10

====

target: CYP2C19 (Homo sapiens (Human), UniProt P33261); test: CYP enzyme inhibition, fluorescent substrate (CEC)
Sequence (P33261 whole entry): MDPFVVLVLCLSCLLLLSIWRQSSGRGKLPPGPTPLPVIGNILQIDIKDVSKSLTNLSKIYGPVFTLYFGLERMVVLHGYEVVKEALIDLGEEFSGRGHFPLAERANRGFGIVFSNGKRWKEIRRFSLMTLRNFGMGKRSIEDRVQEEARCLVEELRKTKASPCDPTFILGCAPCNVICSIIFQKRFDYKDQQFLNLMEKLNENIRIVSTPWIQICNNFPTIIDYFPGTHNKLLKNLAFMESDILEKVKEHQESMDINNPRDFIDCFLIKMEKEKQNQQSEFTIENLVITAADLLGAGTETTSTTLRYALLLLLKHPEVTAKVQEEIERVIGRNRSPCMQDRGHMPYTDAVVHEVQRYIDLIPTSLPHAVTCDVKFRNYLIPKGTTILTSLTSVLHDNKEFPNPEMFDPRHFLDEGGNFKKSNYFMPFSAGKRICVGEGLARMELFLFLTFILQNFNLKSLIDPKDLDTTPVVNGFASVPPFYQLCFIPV
pIC50: −log10 of the molar value.
Endpoint name: pIC50

structure=CCc1ccc(S(=O)(=O)Nc2ccc(F)c(C(=O)c3c[nH]c4ncnc(NC(C)C)c34)c2F)cc1 endpoint_name=pIC50 result="5.00 to 5.30"
structure=CC(C)c1ncnc2[nH]cc(C(=O)c3c(F)ccc(NS(=O)(=O)c4ccc(C(F)(F)F)cc4)c3F)c12 endpoint_name=pIC50 result="5.00 to 5.30"
structure=CCCS(=O)(=O)Nc1ccc(F)c(C(=O)c2c[nH]c3ncc(F)c(C#N)c23)c1F endpoint_name=pIC50 result="< 5.00"
structure=Cc1ncnc2[nH]cc(C(=O)c3c(F)ccc(NS(=O)(=O)c4ccc(C(C)C)cc4)c3F)c12 endpoint_name=pIC50 result="5.00 to 5.30"

====

target: B-Raf V600E (Homo sapiens (Human), UniProt P15056, V600E); assay: B-Raf V600E kinase activity biochemical assay (AlphaScreen, biotin-MEK1 phosphorylation); details: ratio of IC50 B-Raf V600E / c-Raf-1
Sequence (P15056 whole entry V600E): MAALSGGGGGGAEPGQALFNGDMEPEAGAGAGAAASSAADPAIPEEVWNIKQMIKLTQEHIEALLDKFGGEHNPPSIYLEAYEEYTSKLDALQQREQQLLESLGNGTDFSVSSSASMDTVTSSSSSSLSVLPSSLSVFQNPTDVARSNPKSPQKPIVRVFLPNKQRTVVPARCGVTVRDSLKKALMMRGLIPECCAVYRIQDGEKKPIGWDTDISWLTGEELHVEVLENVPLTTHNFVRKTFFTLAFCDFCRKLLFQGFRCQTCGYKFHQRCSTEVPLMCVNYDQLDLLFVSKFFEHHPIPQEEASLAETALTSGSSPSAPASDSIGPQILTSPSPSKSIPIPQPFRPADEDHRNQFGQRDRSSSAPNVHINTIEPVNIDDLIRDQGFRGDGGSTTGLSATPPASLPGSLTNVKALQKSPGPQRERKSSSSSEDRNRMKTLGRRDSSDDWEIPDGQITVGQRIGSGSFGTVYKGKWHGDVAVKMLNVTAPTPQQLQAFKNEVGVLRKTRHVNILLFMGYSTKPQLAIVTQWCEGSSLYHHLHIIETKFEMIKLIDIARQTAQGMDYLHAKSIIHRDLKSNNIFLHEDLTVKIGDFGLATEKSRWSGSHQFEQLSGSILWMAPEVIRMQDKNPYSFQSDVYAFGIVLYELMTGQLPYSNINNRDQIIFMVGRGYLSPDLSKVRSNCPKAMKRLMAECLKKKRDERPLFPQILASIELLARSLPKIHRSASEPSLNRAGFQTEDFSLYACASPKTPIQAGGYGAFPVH
Reported Biochemical activity ratio V600E/C values for the following compounds.
Endpoint name: Biochemical activity ratio V600E/C

structure=CCCS(=O)(=O)Nc1ccc(F)c(C(=O)c2c[nH]c3ncc(F)c(C#N)c23)c1F target_desc="B-Raf V600E (Homo sapiens (Human), UniProt P15056, V600E)" result=0.1-10
structure=COCCNc1ncnc2[nH]cc(C(=O)c3c(F)ccc(NS(=O)(=O)c4ccc(C(F)(F)F)cc4)c3F)c12 target_desc="B-Raf V600E (Homo sapiens (Human), UniProt P15056, V600E)" result=>10
structure=CCCc1ccc(S(=O)(=O)Nc2ccc(F)c(C(=O)c3c[nH]c4ncnc(NC5CCOCC5)c34)c2F)cc1 target_desc="B-Raf V600E (Homo sapiens (Human), UniProt P15056, V600E)" result=>10
structure=Cc1ncnc2[nH]cc(C(=O)c3c(F)ccc(NS(=O)(=O)CC(C)C)c3F)c12 target_desc="B-Raf V600E (Homo sapiens (Human), UniProt P15056, V600E)" result=0.1-10
structure=CCn1cc(Nc2ncnc3[nH]cc(C(=O)c4c(F)ccc(NS(=O)(=O)c5ccc(C(F)(F)F)cc5)c4F)c23)cn1 target_desc="B-Raf V600E (Homo sapiens (Human), UniProt P15056, V600E)" result=>10
structure=O=C(c1c(F)ccc(NS(=O)(=O)c2ccc(C(F)(F)F)cc2)c1F)c1c[nH]c2ncnc(NC3CCOCC3)c12 target_desc="B-Raf V600E (Homo sapiens (Human), UniProt P15056, V600E)" result=>10
structure=O=C(c1c(F)ccc(NS(=O)(=O)c2ccc(C(F)(F)F)cc2)c1F)c1c[nH]c2ncnc(Nc3ccccc3)c12 target_desc="B-Raf V600E (Homo sapiens (Human), UniProt P15056, V600E)" result=>10
structure=CCCS(=O)(=O)Nc1ccc(F)c(C(=O)c2c[nH]c3ncc(Cl)c(C)c23)c1F target_desc="B-Raf V600E (Homo sapiens (Human), UniProt P15056, V600E)" result=0.1-10
structure=CC(C)COc1ncnc2[nH]cc(C(=O)c3c(F)ccc(NS(=O)(=O)c4ccc(C(F)(F)F)cc4)c3F)c12 target_desc="B-Raf V600E (Homo sapiens (Human), UniProt P15056, V600E)" result=>10
structure=CCCS(=O)(=O)Nc1ccc(F)c(C(=O)c2c[nH]c3ncnc(Cl)c23)c1F target_desc="B-Raf V600E (Homo sapiens (Human), UniProt P15056, V600E)" result=0.1-10
structure=O=C(c1c(F)ccc(NS(=O)(=O)c2ccc(C(F)(F)F)cc2)c1F)c1c[nH]c2ncnc(O)c12 target_desc="B-Raf V600E (Homo sapiens (Human), UniProt P15056, V600E)" result=>10
structure=COc1ccc(S(=O)(=O)Nc2ccc(F)c(C(=O)c3c[nH]c4ncnc(C)c34)c2F)cc1F target_desc="B-Raf V600E (Homo sapiens (Human), UniProt P15056, V600E)" result=0.1-10
structure=CC(C)Cc1ncnc2[nH]cc(C(=O)c3c(F)ccc(NS(=O)(=O)c4ccc(C(F)(F)F)cc4)c3F)c12 target_desc="B-Raf V600E (Homo sapiens (Human), UniProt P15056, V600E)" result=>10
structure=CCCc1ccc(S(=O)(=O)Nc2ccc(F)c(C(=O)c3c[nH]c4ncnc(Cl)c34)c2F)cc1 target_desc="B-Raf V600E (Homo sapiens (Human), UniProt P15056, V600E)" result=>10
structure=CCCS(=O)(=O)Nc1ccc(F)c(C(=O)c2c[nH]c3ncc(C#N)c(OC)c23)c1F target_desc="B-Raf V600E (Homo sapiens (Human), UniProt P15056, V600E)" result=0.1-10
structure=CCOc1ncnc2[nH]cc(C(=O)c3c(F)ccc(NS(=O)(=O)c4ccc(C(F)(F)F)cc4)c3F)c12 target_desc="B-Raf V600E (Homo sapiens (Human), UniProt P15056, V600E)" result=>10
structure=CCCc1ccc(S(=O)(=O)Nc2ccc(F)c(C(=O)c3c[nH]c4ncnc(C)c34)c2F)cc1 target_desc="B-Raf V600E (Homo sapiens (Human), UniProt P15056, V600E)" result=>10
structure=CC(C)Nc1ncnc2[nH]cc(C(=O)c3c(F)ccc(NS(=O)(=O)c4ccc(C(F)(F)F)cc4)c3F)c12 target_desc="B-Raf V600E (Homo sapiens (Human), UniProt P15056, V600E)" result=>10
structure=O=C(c1c(F)ccc(NS(=O)(=O)c2ccc(C(F)(F)F)cc2)c1F)c1c[nH]c2ncnc(OCC3CC3)c12 target_desc="B-Raf V600E (Homo sapiens (Human), UniProt P15056, V600E)" result=>10
structure=CC(C)c1ncnc2[nH]cc(C(=O)c3c(F)ccc(NS(=O)(=O)c4ccc(C(F)(F)F)cc4)c3F)c12 target_desc="B-Raf V600E (Homo sapiens (Human), UniProt P15056, V600E)" result=>10
structure=CC(C)CNc1ncnc2[nH]cc(C(=O)c3c(F)ccc(NS(=O)(=O)c4ccc(C(F)(F)F)cc4)c3F)c12 target_desc="B-Raf V600E (Homo sapiens (Human), UniProt P15056, V600E)" result=>10
structure=Cn1cc(Nc2ncnc3[nH]cc(C(=O)c4c(F)ccc(NS(=O)(=O)c5ccc(C(F)(F)F)cc5)c4F)c23)cn1 target_desc="B-Raf V600E (Homo sapiens (Human), UniProt P15056, V600E)" result=>10
